test: Transdermal delivery of melatonin: plasma level of melatonin after applying composition to skin of a subject; details: human, plasma, topical, 3 mg, Plasma level of melatonin, Leucine hexyl ester hydrochloride 278.04 mM, 0.60 mL applied to skin, 1 hr after transdermal administration
Measured parameter: concentration at 1 h (ng/mL)
Note: unit ng/mL is implicit; provide only the numeric part.

q: concentration at 1 h lookup needed for `COc1ccc2[nH]cc(CCNC(C)=O)c2c1` , thanks.
a: 1.4

----------
test: Transdermal delivery of melatonin: plasma level of melatonin after applying composition to skin of a subject; conditions: human, plasma, topical, Plasma level of melatonin, 2-(Dibutylamino)ethyl 2-acetoxybenzoate hydrochloride 188.23 mM, 0.375 mL applied to skin, 8 hr after transdermal administration
Measured parameter: concentration at 8 h (ng/mL)
Note: unit ng/mL is implicit; provide only the numeric part.

q: concentration at 8 h lookup needed for `COc1ccc2[nH]cc(CCNC(C)=O)c2c1` , thanks.
a: 1.6

----------
assay: Transdermal delivery of melatonin: plasma level of melatonin after applying composition to skin of a subject; conditions: human, plasma, topical, 3 mg, Plasma level of melatonin, Tyrosine propyl ester 269.5 mM, 0.30 mL applied to skin, 2 hr after transdermal administration
Measured parameter: concentration at 2 hr (ng/mL)
Note: unit ng/mL is implicit; provide only the numeric part.

q: concentration at 2 hr lookup needed for `COc1ccc2[nH]cc(CCNC(C)=O)c2c1` , thanks.
a: 2.5

----------
assay: Transdermal delivery of melatonin: plasma level of melatonin after applying composition to skin of a subject; conditions: human, plasma, topical, 3 mg, Plasma level of melatonin, Leucine isopropyl ester hydrochloride 333.76 mM, 0.60 mL applied to skin, 2 hr after transdermal administration
Measured parameter: concentration at 2 h (ng/mL)
Note: unit ng/mL is implicit; provide only the numeric part.

q: concentration at 2 h lookup needed for COc1ccc2[nH]cc(CCNC(C)=O)c2c1 [Melatonin] , thanks.
a: 1.8

----------
assay: Transdermal delivery of melatonin: plasma level of melatonin after applying composition to skin of a subject; conditions: human, plasma, topical, Plasma level of melatonin, Proline methyl ester hydrochloride 422.66 mM, 0.60 mL applied to skin, 4 hr after transdermal administration
Measured parameter: concentration at 4 h (ng/mL)
Note: unit ng/mL is implicit; provide only the numeric part.

q: concentration at 4 h lookup needed for COc1ccc2[nH]cc(CCNC(C)=O)c2c1 [Melatonin] , thanks.
a: 1.3

----------
assay: Transdermal delivery of melatonin: plasma level of melatonin after applying composition to skin of a subject; settings: human, plasma, topical, 3 mg, Plasma level of melatonin, salt of tryptophan isopropyl ester, A− = Cl^−, 247.52 mM, 0.30 mL applied, 8 hr after transdermal administration
Measured parameter: concentration at 8 h (ng/mL)
Note: unit ng/mL is implicit; provide only the numeric part.

q: concentration at 8 h lookup needed for COc1ccc2[nH]cc(CCNC(C)=O)c2c1 [Melatonin] , thanks.
a: 2.5

----------
system: human skin tissue; assay: Penetration rate of AI compound in AI-helper composition through human skin in vitro, modified Franz cells; type: in vitro ADME; settings: D-Phenylalanine isopropyl ester hydrochloride 6% w/v, Al compound 0.5% w/v, water, 25 °C
Criterion: Skin penetration rate of Al compound strictly less than 10 μg/cm^2/h. Met: YES. Not met: NO.

q: Please indicate whether the reported Skin penetration rate of Al compound of O=C(O)CCCCC1CCSS1 (stereo not drawn) is strictly below 10 μg/cm^2/h.
a: NO

q: One more compound: `Cc1ncc(CO)c(CO)c1O.Cl`
a: NO

q: One more compound: `NCCS(=O)(=O)O`
a: YES

q: One more compound: `O=C1O[C@H]([C@@H](O)CO)C(O)=C1O`
a: NO

q: One more compound: `N[C@@H](CCC(=O)N[C@@H](CS)C(=O)NCC(=O)O)C(=O)O`
a: NO

q: One more compound: `Nc1nc2ncc(CNc3ccc(C(=O)N[C@@H](CCC(=O)O)C(=O)O)cc3)nc2c(=O)[nH]1`
a: YES

q: One more compound: `CC1=C(/C=C/C(C)=C/C=C/C(C)=C/C=C/C=C(C)/C=C/C=C(C)/C=C/C2=C(C)CCCC2(C)C)C(C)(C)CCC1`
a: NO

q: One more compound: `CC1=C(/C=C/C(C)=C/C=C/C(C)=C/C=C/C=C(C)/C=C/C=C(C)/C=C/C2=C(C)C(=O)[C@@H](O)CC2(C)C)C(C)(C)C[C@H](O)C1=O`
a: NO

q: One more compound: `Oc1ccc(C=Cc2cc(O)cc(O)c2)cc1`
a: NO

----------
assay: Transdermal delivery of melatonin: plasma level of melatonin after applying composition to skin of a subject; conditions: human, plasma, topical, 3 mg, Plasma level of melatonin, Isoleucine isopropyl ester 333.76 mM, 0.60 mL applied to skin, 8 hr after transdermal administration
Measured parameter: concentration at 8 hr (ng/mL)
Note: unit ng/mL is implicit; provide only the numeric part.

q: concentration at 8 hr lookup needed for `COc1ccc2[nH]cc(CCNC(C)=O)c2c1` , thanks.
a: 1.8

----------
assay: Transdermal delivery of melatonin: plasma level of melatonin after applying composition to skin of a subject; conditions: human, plasma, topical, 3 mg, Plasma level of melatonin, Table 20 control, A− N/A, helper esters 0 mM, 2.0 mL applied, 0 hr after transdermal administration
Measured parameter: concentration at 0 hr (ng/mL)
Note: unit ng/mL is implicit; provide only the numeric part.

q: concentration at 0 hr lookup needed for COc1ccc2[nH]cc(CCNC(C)=O)c2c1 [Melatonin] , thanks.
a: 0

----------
assay: Transdermal delivery of melatonin: plasma level of melatonin after applying composition to skin of a subject; conditions: human, plasma, topical, Plasma level of melatonin, 2-(Dibutylamino)ethyl 2-acetoxybenzoate hydrochloride 188.23 mM, 0.375 mL applied to skin, 1 hr after transdermal administration
Measured parameter: concentration at 1 h (ng/mL)
Note: unit ng/mL is implicit; provide only the numeric part.

q: concentration at 1 h lookup needed for `COc1ccc2[nH]cc(CCNC(C)=O)c2c1` , thanks.
a: 1.6

----------
assay: Transdermal delivery of melatonin: plasma level of melatonin after applying composition to skin of a subject; conditions: human, plasma, topical, Plasma level of melatonin, Proline methyl ester hydrochloride 422.66 mM, 0.60 mL applied to skin, 1 hr after transdermal administration
Measured parameter: concentration at 1 h (ng/mL)
Note: unit ng/mL is implicit; provide only the numeric part.

q: concentration at 1 h lookup needed for COc1ccc2[nH]cc(CCNC(C)=O)c2c1 [Melatonin] , thanks.
a: 1.2

----------
experiment: Transdermal delivery of melatonin: plasma level of melatonin after applying composition to skin of a subject; details: human, plasma, topical, Plasma level of melatonin, Proline hexyl ester hydrochloride 296.94 mM, 0.60 mL applied to skin, 8 hr after transdermal administration
Measured parameter: concentration at 8 h (ng/mL)
Note: unit ng/mL is implicit; provide only the numeric part.

q: concentration at 8 h lookup needed for `COc1ccc2[nH]cc(CCNC(C)=O)c2c1` , thanks.
a: 1.2

----------
experiment: Transdermal delivery of melatonin: plasma level of melatonin after applying composition to skin of a subject; conditions: human, plasma, topical, Plasma level of melatonin, salt of tyrosine isopropyl ester, A− = Br^−, 230.16 mM, 0.30 mL applied, 4 hr after transdermal administration
Measured parameter: concentration at 4 h (ng/mL)
Note: unit ng/mL is implicit; provide only the numeric part.

q: concentration at 4 h lookup needed for `COc1ccc2[nH]cc(CCNC(C)=O)c2c1` , thanks.
a: 2.7

----------
assay: Transdermal delivery of melatonin: plasma level of melatonin after applying composition to skin of a subject; conditions: human, plasma, topical, 3 mg, Plasma level of melatonin, Leucine hexyl ester hydrochloride 278.04 mM, 0.60 mL applied to skin, 0 hr after transdermal administration
Measured parameter: concentration at 0 h (ng/mL)
Note: unit ng/mL is implicit; provide only the numeric part.

q: concentration at 0 h lookup needed for `COc1ccc2[nH]cc(CCNC(C)=O)c2c1` , thanks.
a: 0

----------
assay: Transdermal delivery of melatonin: plasma level of melatonin after applying composition to skin of a subject; conditions: human, plasma, topical, Plasma level of melatonin, salt of tyrosine isopropyl ester, A− = F^−, 287.91 mM, 0.30 mL applied, 2 hr after transdermal administration
Measured parameter: concentration at 2 h
Record the result as a number with its unit.

q: concentration at 2 h lookup needed for `COc1ccc2[nH]cc(CCNC(C)=O)c2c1` , thanks.
a: 2.8 ng/mL

----------
assay: Transdermal delivery of melatonin: plasma level of melatonin after applying composition to skin of a subject; details: human, plasma, topical, 3 mg, Plasma level of melatonin, Tryptophan butyl ester hydrochloride 235.90 mM, 0.3 mL applied to skin, 8 hr after transdermal administration
Measured parameter: concentration at 8 h
Record the result as a number with its unit.

q: concentration at 8 h lookup needed for `COc1ccc2[nH]cc(CCNC(C)=O)c2c1` , thanks.
a: 1.7 ng/mL
